# system.under.test: PI3 Kinase α (Homo sapiens, UniProt P42336)
# Sequence (P42336 whole entry): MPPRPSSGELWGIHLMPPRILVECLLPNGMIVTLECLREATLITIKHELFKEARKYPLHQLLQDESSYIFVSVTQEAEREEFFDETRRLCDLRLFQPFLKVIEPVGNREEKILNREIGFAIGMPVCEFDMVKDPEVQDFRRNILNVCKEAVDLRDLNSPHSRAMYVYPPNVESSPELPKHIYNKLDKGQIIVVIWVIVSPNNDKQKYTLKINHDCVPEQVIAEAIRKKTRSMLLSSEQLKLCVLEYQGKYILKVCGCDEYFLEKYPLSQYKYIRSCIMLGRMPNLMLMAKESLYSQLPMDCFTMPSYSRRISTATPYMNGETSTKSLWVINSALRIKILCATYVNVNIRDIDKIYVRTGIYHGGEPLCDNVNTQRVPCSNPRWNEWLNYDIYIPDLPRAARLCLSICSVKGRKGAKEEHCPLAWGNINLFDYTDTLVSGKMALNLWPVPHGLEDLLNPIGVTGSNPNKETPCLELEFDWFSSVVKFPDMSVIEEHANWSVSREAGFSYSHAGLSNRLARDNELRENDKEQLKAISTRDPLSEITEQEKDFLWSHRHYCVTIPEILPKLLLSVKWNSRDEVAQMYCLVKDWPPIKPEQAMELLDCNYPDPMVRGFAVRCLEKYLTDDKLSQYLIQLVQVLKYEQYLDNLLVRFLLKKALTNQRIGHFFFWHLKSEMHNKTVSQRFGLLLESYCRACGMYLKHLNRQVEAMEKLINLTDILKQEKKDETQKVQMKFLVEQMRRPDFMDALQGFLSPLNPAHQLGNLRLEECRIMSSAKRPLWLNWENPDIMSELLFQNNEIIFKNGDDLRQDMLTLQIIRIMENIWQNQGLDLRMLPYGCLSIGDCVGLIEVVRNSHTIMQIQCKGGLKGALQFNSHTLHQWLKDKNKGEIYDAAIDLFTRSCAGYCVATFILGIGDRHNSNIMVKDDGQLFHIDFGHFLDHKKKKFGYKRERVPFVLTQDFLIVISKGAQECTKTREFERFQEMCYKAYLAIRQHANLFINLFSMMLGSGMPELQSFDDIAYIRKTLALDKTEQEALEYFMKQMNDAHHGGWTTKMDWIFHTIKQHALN
# Sequence (P27986 whole entry partner): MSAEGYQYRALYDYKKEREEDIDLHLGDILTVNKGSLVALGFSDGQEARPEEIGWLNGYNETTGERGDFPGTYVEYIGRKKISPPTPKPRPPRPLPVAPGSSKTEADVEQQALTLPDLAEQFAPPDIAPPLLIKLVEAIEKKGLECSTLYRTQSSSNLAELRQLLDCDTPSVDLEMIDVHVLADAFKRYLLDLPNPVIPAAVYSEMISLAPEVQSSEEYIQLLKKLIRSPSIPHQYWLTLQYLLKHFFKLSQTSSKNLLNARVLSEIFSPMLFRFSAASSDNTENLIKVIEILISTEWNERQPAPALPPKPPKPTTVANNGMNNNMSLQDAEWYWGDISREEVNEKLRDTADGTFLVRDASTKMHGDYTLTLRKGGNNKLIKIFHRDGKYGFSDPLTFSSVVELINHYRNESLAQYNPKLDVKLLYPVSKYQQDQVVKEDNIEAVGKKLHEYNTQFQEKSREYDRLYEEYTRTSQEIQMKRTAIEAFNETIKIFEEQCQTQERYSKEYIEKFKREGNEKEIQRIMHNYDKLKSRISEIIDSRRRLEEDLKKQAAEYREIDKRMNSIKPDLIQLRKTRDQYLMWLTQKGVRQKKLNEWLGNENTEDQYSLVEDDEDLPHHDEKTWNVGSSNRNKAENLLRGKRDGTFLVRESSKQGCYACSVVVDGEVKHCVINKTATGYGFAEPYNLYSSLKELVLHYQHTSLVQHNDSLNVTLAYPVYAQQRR
quantity: IC50 (nM)
Provide the reading as a plain figure in nM.

# example entries with known answers
compound="Cn1nnc2c(N3CCOCC3)nc(-c3ccc(NC(=O)Nc4cccnc4)cc3)nc21 [Example 199]" quantity=IC50 experimental_value=10.5
compound="CC(=O)NCCn1nnc2c(N3CCOCC3)nc(-c3cccc(O)c3)nc21 [Example 7]" quantity=IC50 experimental_value=171
compound="O=C(c1ccc(Cn2nnc3c(N4CCOCC4)nc(-c4cccc(O)c4)nc32)cc1)N1CCCCC1 [Example 227]" quantity=IC50 experimental_value=1130
compound="CC(C)n1nnc2c(N3CCOCC3)nc(-c3ccc(NC(=O)Nc4ccc(F)cc4)cc3)nc21 [Example 87]" quantity=IC50 experimental_value=13.5
compound="CC(C)(C)OC(=O)N1CCC(n2nnc3c(N4CCOCC4)nc(-c4ccc(NC(=O)Nc5ccc(F)cc5)cc4)nc32)CC1 [Example 165]" quantity=IC50 experimental_value=151
compound="CN(C)CCCOc1ccc(CN2CCC(n3nnc4c(N5CCOCC5)nc(-c5cncc(O)c5)nc43)CC2)cc1 [Example 17]" quantity=IC50 experimental_value=217
compound="CCn1nnc2c(N3CCOCC3)nc(-c3ccc(NC(=O)Nc4ccc(C(=O)NCc5ccncc5)cc4)cc3)nc21 [Example 51]" quantity=IC50 experimental_value=3.6
compound="CNC(=O)c1ccc(Cn2nnc3c(N4CCOCC4)nc(-c4cccc(O)c4)nc32)cc1 [Example 207]" quantity=IC50 experimental_value=342

Fill in: PI3 Kinase α (Homo sapiens, UniProt P42336) IC50 for CCn1nnc2c(N3CCOCC3)nc(-c3ccc(NC(=O)Nc4ccc(C(=O)NCCN5CCOCC5)cc4)cc3)nc21 [Example 53] = 3.5

Fill in: PI3 Kinase α (Homo sapiens, UniProt P42336) IC50 for CCCCN1CCC(n2nnc3c(N4CCOCC4)nc(-c4ccc(NC(=O)NCCN(C)C)cc4)nc32)CC1 [Example 159] = 166
